# experimental-target: JAK2 (Homo sapiens, UniProt O60674)
# Sequence (O60674 whole entry): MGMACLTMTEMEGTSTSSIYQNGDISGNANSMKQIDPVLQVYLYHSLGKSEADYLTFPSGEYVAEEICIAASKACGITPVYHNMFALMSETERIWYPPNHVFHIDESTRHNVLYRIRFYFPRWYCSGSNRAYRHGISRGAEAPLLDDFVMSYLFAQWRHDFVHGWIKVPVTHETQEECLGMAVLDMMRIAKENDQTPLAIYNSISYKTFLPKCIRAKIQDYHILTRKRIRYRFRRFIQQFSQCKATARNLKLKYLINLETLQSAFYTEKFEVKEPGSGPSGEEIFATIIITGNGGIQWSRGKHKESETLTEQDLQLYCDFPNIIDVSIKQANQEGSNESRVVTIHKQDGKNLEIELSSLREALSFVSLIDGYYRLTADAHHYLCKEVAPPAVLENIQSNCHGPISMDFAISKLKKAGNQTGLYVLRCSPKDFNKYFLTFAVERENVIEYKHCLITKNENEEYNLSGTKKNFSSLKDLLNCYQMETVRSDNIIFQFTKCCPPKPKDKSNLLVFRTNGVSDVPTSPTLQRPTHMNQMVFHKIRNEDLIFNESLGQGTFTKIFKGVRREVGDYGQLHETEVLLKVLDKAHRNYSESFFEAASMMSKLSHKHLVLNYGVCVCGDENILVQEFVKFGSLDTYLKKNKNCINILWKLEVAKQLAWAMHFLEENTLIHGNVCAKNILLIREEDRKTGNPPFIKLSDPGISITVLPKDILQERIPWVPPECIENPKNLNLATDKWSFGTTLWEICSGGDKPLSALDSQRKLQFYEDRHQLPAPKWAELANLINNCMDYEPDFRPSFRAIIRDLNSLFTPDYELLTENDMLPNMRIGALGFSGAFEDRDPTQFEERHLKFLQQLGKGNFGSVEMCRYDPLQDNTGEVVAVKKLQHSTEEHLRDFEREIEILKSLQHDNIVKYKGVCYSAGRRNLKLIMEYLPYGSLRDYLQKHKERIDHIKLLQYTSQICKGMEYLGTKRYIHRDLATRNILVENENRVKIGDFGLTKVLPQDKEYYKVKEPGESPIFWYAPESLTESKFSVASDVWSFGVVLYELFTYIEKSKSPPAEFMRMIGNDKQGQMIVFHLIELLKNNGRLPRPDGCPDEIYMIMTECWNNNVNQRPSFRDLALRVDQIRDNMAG
# test-protocol: JAK assay (KINASE-GLO luminescent kinase assay), JAK2
# Assay type: biochemical
# condition-info: 10 nM JAK enzyme, 800 nM Abl peptide, room temperature 75 min
measured-quantity: IC50

Known results for compounds:
>>> reported_result("CC(C)(C)OC(=O)NCc1cccc(Nc2ncc(Cl)c(-c3cnn(CC4(CF)CC4)c3)n2)c1 [CC(C)(C)OC(═O)NCC1═CC═CC]")
"< 100 nM"
>>> reported_result("Cn1cc(Nc2ncc(Cl)c(-c3cnn(CCC4CC4)c3)n2)cn1 [C[N]1C═C(NC2═NC(═C]")
"< 10 nM"
>>> reported_result("Cc1cnc(Nc2cccc(C(N)=O)c2)nc1-c1cnn(CC2(CF)CC2)c1 [CC1═C(N═C(NC2═CC(═CC═C2)C]")
"< 10 nM"
>>> reported_result("Cn1ccc(Nc2ncc(Cl)c(-c3cnn(CCC#N)c3)n2)n1 [C[N]1C═CC(═N1)NC2═NC(═C]")
"< 10 nM"
>>> reported_result("Cc1cnc(NCCN2CCOCC2)nc1-c1cnn(CCC#N)c1 [CC1═C(N═C(NCCN2CCOCC2)N═C1)C3═C[N]]")
"< 100000 nM"
>>> reported_result("N#CCCn1cc(-c2nc(Nc3cc(C(F)(F)F)no3)ncc2Cl)cn1 [FC(F)(F)C1═NOC(═C1)NC2═NC(═C]")
"< 1000 nM"
>>> reported_result("CNC(=O)c1ccc(Nc2ncc(C)c(-c3cnn(CC4(CF)CC4)c3)n2)cc1 [CNC(═O)C1═CC═C(NC2═NC(═C]")
"< 10 nM"

API: the following record is the query input.
Q: Requested read-out: IC50. Entry: N#CCCn1cc(-c2ccnc(NC(=O)C3CC3)n2)cn1 [O═C(NC1═NC(═CC═N1)C2═C[N]]
Ans: < 100000 nM

* * *

# experimental-target: JAK3 (Homo sapiens, UniProt P52333)
# Sequence (P52333 whole entry): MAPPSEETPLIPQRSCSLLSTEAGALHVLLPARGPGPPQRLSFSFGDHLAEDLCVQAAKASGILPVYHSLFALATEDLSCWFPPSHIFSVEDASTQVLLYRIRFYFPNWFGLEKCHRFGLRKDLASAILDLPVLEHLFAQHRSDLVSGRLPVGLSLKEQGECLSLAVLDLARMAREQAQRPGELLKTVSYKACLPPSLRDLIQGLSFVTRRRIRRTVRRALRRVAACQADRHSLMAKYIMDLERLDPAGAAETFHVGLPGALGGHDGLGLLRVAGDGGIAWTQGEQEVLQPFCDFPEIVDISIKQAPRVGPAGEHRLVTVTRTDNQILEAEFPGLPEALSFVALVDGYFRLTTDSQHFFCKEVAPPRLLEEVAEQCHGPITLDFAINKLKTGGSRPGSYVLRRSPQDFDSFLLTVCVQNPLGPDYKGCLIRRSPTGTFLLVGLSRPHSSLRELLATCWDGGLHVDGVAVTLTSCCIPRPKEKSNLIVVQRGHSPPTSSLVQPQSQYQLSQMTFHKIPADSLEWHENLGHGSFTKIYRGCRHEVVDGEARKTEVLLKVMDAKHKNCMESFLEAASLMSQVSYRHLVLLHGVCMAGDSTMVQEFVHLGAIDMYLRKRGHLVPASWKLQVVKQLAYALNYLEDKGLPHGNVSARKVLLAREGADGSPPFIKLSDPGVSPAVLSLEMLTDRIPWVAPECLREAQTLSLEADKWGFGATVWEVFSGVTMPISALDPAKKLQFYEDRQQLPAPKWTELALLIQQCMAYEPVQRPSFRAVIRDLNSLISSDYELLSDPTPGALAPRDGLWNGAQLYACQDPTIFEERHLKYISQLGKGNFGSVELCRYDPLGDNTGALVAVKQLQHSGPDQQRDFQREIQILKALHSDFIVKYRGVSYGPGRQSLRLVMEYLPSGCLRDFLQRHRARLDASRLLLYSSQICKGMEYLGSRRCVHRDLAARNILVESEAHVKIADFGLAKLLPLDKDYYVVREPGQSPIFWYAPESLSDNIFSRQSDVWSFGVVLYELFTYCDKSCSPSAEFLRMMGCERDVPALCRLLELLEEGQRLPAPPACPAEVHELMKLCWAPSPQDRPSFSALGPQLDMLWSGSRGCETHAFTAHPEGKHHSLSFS
# test-protocol: JAK assay (KINASE-GLO luminescent kinase assay), JAK3
# Type: biochemical
# condition-info: 10 nM JAK enzyme, 800 nM Abl peptide, room temperature 75 min
measured-quantity: IC50

Known results for molecules:
>>> reported_result("Cc1cnc(Nc2ccc(OCCN(C)C)cc2)nc1-c1cnn(CC2(CF)CC2)c1")
"< 100 nM"
>>> reported_result("COC(=O)c1cc(Nc2ncc(C)c(-c3cnn(CCC#N)c3)n2)ccc1N1CCOCC1 [COC(═O)C1═CC(═CC═C1)NC2═NC(═C]")
"< 10 nM"
>>> reported_result("Cc1cnc(NCCO)nc1-c1cnn(CCC#N)c1 [CC1═C(N═C(NCCO)N═C1)C2═C[N]]")
"< 100000 nM"
>>> reported_result("Cc1cnc(Nc2ccc(CCN(C)C)cc2)nc1-c1cnn(CC2(CF)CC2)c1")
"< 100 nM"
>>> reported_result("CC(C)(C)OC(=O)N1CC(CO)(Cn2cc(-c3nc(Nc4ccc(C(N)=O)cc4)ncc3Cl)cn2)C1 [CC(C)(C)OC(═O)N1CC(CO)(C1)C[N]2C═C]")
"< 100 nM"

Q: Requested read-out: IC50. Entry: `Cc1cnc(Nc2cccc(CNC(=O)CN(C)C)c2)nc1-c1cnn(CC2(CF)CC2)c1`
Ans: < 10 nM

Q: Requested read-out: IC50. Entry: `NCc1cccc(Nc2ncc(Cl)c(-c3cnn(CC4(CF)CC4)c3)n2)c1`
Ans: < 10 nM

* * *

Listing of entries alongside the reported IC50.
# experimental-target: JAK2 (Homo sapiens, UniProt O60674)
# test-protocol: JAK assay (KINASE-GLO luminescent kinase assay), JAK2
# Assay type: biochemical
# condition-info: 10 nM JAK enzyme, 800 nM Abl peptide, room temperature 75 min

Known results for molecules:
>>> reported_result("Cc1cnc(Nc2cccc(CN3CCN(C)CC3)c2)nc1-c1cnn(CC2(CF)CC2)c1 [CN1CCN(CC1)CC2═CC═CC(═C2)NC3═NC(═C]")
"< 10 nM"
>>> reported_result("Cc1cnc(Nc2ccc(N3CCOCC3)cc2)nc1-c1cnn(CC2(C#N)CC2)c1 [C(C1═C(N═C(NC2═CC═C(C═C2)N3CCOCC3)]")
"< 10 nM"

Q: Requested read-out: IC50. Entry: N#CCC1(Cn2cc(-c3ccnc(Nc4cc(CO)ns4)n3)cn2)CC1 [OCC1═NSC(═C1)NC2═NC(═CC═N2)C3═C[N]]
Ans: < 10 nM

Q: Requested read-out: IC50. Entry: CCS(=O)(=O)N1CC(CO)(Cn2cc(-c3nc(Nc4cc(C)ns4)ncc3Cl)cn2)C1 [CC[S](═O)(═O)N1CC(CO)]
Ans: < 1000 nM

* * *

# experimental-target: JAK3 (Homo sapiens)
# test-protocol: JAK assay (KINASE-GLO luminescent kinase assay), JAK3
# Assay type: biochemical
# condition-info: 10 nM JAK enzyme, 800 nM Abl peptide, room temperature 75 min
measured-quantity: IC50

Known results for molecules:
>>> reported_result("Cc1cnc(Nc2cc(CN(C)C)ns2)nc1-c1cnn(CC2(CF)CC2)c1 [CN(C)CC1═NSC(═C1)NC2═NC(═C]")
"< 100 nM"
>>> reported_result("Cc1cnc(NCCN2CCOCC2)nc1-c1cnn(CCC#N)c1 [CC1═C(N═C(NCCN2CCOCC2)N═C1)C3═C[N]]")
"> 50000 nM"
>>> reported_result("COC1(c2ccc(Nc3ncc(C)c(-c4cnn(CC5(CF)CC5)c4)n3)cc2)COC1 [COC1(COC1)C2═CC═C(NC3═NC(═C]")
"< 1000 nM"

API: the following record is the query input.
Q: Requested read-out: IC50. Entry: Cc1cnc(Nc2cc(CO)ns2)nc1-c1cnn(CC2(CF)CC2)c1 [CC1═C(N═C(NC2═CC(═NS2)CO)N═C1)C3═C[N]]
Ans: < 10 nM

* * *

# experimental-target: JAK2 (Homo sapiens)
# test-protocol: JAK assay (KINASE-GLO luminescent kinase assay), JAK2
# Format: biochemical
# condition-info: 10 nM JAK enzyme, 800 nM Abl peptide, room temperature 75 min
measured-quantity: IC50

Known results for molecules:
>>> reported_result("CC(C)(C)OC(=O)N1CC(C#N)(Cn2cc(-c3nc(Nc4ccc(C(N)=O)cc4)ncc3Cl)cn2)C1 [CC(C)(C)OC(═O)N1CC(C1)(C[N]2C═C]")
"< 10 nM"
>>> reported_result("Cc1cnc(Nc2ccccn2)nc1-c1cnn(CC2(Cl)CC2)c1 [CC1═C(N═C(NC2═CC═CC═N2)N═C1)C3═C[N]]")
"< 1000 nM"
>>> reported_result("N#CC1(Cn2cc(-c3nc(Nc4cnc5ccnn5c4)ncc3Cl)cn2)CCC1 [ClC1═C(N═C]")
"< 100 nM"
>>> reported_result("Cc1cnc(Nc2ccns2)nc1-c1cnn(CC2(CF)CC2)c1 [CC1═C(N═C(NC2═CC═NS2)N═C1)C3═C[N]]")
"< 10 nM"

Q: Requested read-out: IC50. Entry: CC(=O)OCCc1ccc(Nc2ncc(Cl)c(-c3cnn(CCC#N)c3)n2)cc1 [CC(═O)OCCC1═CC═C(NC2═NC(═C]
Ans: < 10 nM

Q: Requested read-out: IC50. Entry: CC(C)(C)OC(=O)N1CC(CF)(Cn2cc(-c3nc(Nc4ccc(C(N)=O)cc4)ncc3Cl)cn2)C1 [CC(C)(C)OC(═O)N1CC(CF)(C1)C[N]2C═C]
Ans: < 100 nM

Q: Requested read-out: IC50. Entry: Cc1cc(Nc2ncc(C)c(-c3cnn(CC4(CF)CCC4)c3)n2)sn1 [CC1═NSC(═C1)NC2═NC═C(C)C]
Ans: < 10 nM

Q: Requested read-out: IC50. Entry: Cc1cnc(Nc2ccc3c(c2)OCCN3C)nc1-c1cnn(CC2(CF)CC2)c1 [CN1CCOC2═CC(═CC═C12)NC3═NC(═C]
Ans: < 10 nM

* * *

# experimental-target: JAK2 (Homo sapiens, UniProt O60674)
# test-protocol: JAK assay (KINASE-GLO luminescent kinase assay), JAK2
# Assay type: biochemical
# condition-info: 10 nM JAK enzyme, 800 nM Abl peptide, room temperature 75 min
measured-quantity: IC50

Known results for molecules:
>>> reported_result("COCCOCc1cc(Nc2ncc(C)c(-c3cnn(CC4(CF)CC4)c3)n2)sn1 [COCCOCC1═NSC(═C1)NC2═NC(═C]")
"< 1000 nM"
>>> reported_result("Cc1cncc(Nc2ncc(C)c(-c3cnn(CC4(CF)CCC4)c3)n2)c1 [CC1═CN═CC(═C1)NC2═NC(═C]")
"< 10 nM"
>>> reported_result("Cc1cnc(NCCO)nc1-c1cnn(CCC#N)c1 [CC1═C(N═C(NCCO)N═C1)C2═C[N]]")
"< 100000 nM"

Q: Request body: readout IC50, system JAK2 (Homo sapiens, UniProt O60674), query Cc1cnc(Nc2ccc(C(=O)NCCN(C)C)cc2)nc1-c1cnn(CC2(CF)CC2)c1 [CN(C)CCNC(═O)C1═CC═C(NC2═NC] . Return the value.
Ans: < 10 nM

Q: Request body: readout IC50, system JAK2 (Homo sapiens, UniProt O60674), query Cc1cnc(Nc2ccnc(CN(C)C)c2)nc1-c1cnn(CC2(CF)CCC2)c1 [CN(C)CC1═CC(═CC═N1)NC2═NC(═C] . Return the value.
Ans: < 10 nM

Q: Request body: readout IC50, system JAK2 (Homo sapiens, UniProt O60674), query Cc1cnc(Nc2ccc(CNC(=O)OC(C)(C)C)cc2)nc1-c1cnn(CC2(CF)CC2)c1 [CC1═C(N═C(NC2═CC═C(CNC(═O)OC] . Return the value.
Ans: < 10 nM

Q: Request body: readout IC50, system JAK2 (Homo sapiens, UniProt O60674), query Cc1cnc(Nc2cc(CNC(=O)CCN(C)C)ns2)nc1-c1cnn(CC2(CF)CC2)c1 [CN(C)CCC(═O)NCC1═NSC(═C1)NC2═NC] . Return the value.
Ans: < 10 nM

Q: Request body: readout IC50, system JAK2 (Homo sapiens, UniProt O60674), query Cc1cnc(Nc2ccc3c(c2)C(=O)N(C)C3=O)nc1-c1cnn(CC2(Cl)CC2)c1 [CN1C(═O)C2═C(C═C(NC3═NC(═C] . Return the value.
Ans: < 10 nM

Q: Request body: readout IC50, system JAK2 (Homo sapiens, UniProt O60674), query Cc1cnc(Nc2ccc(N3CCN(C)CC3)cc2)nc1-c1cnn(CC2(C#N)CC2)c1 [CN1CCN(CC1)C2═CC═C(NC3═NC(═C(C([2H])] . Return the value.
Ans: < 10 nM

Q: Request body: readout IC50, system JAK2 (Homo sapiens, UniProt O60674), query Cc1cnc(Nc2cc(CO)ns2)nc1-c1cnn(CC2(CF)CC2)c1 [CC1═C(N═C(NC2═CC(═NS2)CO)N═C1)C3═C[N]] . Return the value.
Ans: < 10 nM

Sourced from patent US20250236611A1
